Assay: Growth inhibition of NCI60 cell panel
Assay type: functional
Conditions: Homo sapiens
GI50 listing for selected molecules.

{"COMPOUND_SMILES": "COS(=O)(=O)[O-].Cc1ccc2c(c1)-c1c3c(cc(C)cc3c3cc(C)ccc3[n+]1C)N2C", "READING_UNIT": "µM", "GI50": 0.41}
{"COMPOUND_SMILES": "CC(=O)OCCCc1cc2c3c([n+](C)c4ccc(CCCOC(C)=O)cc4c3c1)-c1ccccc1N2C.[I-]", "READING_UNIT": "µM", "GI50": 3.8}
{"COMPOUND_SMILES": "COc1cc2c3c([n+](C)c4ccccc4c3c1)-c1ccc(/C=C/C(=O)N3CCN(C(C)=O)CC3)cc1N2C", "READING_UNIT": "µM", "GI50": 93.3}
{"COMPOUND_SMILES": "CC(=O)OCCCc1cc2c3c([n+](C)c4ccc(/C=C/C(=O)N5CCOCC5)cc4c3c1)-c1ccccc1N2C.[I-]", "READING_UNIT": "µM", "GI50": 27.5}
{"COMPOUND_SMILES": "CC(=O)Nc1ccc2c3cccc4c3c([n+](C)c2c1)-c1ccccc1N4C.[I-]", "READING_UNIT": "µM", "GI50": 12}
{"COMPOUND_SMILES": "COC(=O)/C=C/c1ccc2c(c1)N(C)c1cc(OC)cc3c1c-2[n+](C)c1ccccc31", "READING_UNIT": "µM", "GI50": 4.58}
{"COMPOUND_SMILES": "CN1c2ccccc2-c2c3c1cccc3c1cc(/C=C/C(=O)N3CCOCC3)ccc1[n+]2C.[I-]", "READING_UNIT": "µM", "GI50": 68}
{"COMPOUND_SMILES": "COc1cc2c3c([n+](C)c4ccccc4c3c1)-c1ccc(/C=C/C(=O)N3CCOCC3)cc1N2C.[I-]", "READING_UNIT": "µM", "GI50": 43.7}

---

Experiment: Metabolic stability in Sprague-Dawley rat liver microsomes assessed as drug remaining after 4 hrs

{"COMPOUND_SMILES": "CC(=O)Nc1ccc2c3cccc4c3c([n+](C)c2c1)-c1ccccc1N4C.[I-]", "remaining at 4 h": "69%"}
{"COMPOUND_SMILES": "COS(=O)(=O)[O-].Cc1cc2c3c([n+](C)c4ccc(F)cc4c3c1)-c1cc(F)ccc1N2C", "remaining at 4 h": "81%"}

---

Test: Growth inhibition of NCI60 cell panel
Format: functional
Conditions: Homo sapiens
ATTRIBUTE_MEASURED: log10 of GI50 (log10 of the value in µM)

{"COMPOUND_SMILES": "COS(=O)(=O)[O-].Cc1cc2c3c([n+](C)c4ccc(F)cc4c3c1)-c1cc(F)ccc1N2C", "log10 of GI50": 1.12}
{"COMPOUND_SMILES": "COc1cc2c3c([n+](C)c4ccc(/C=C/C(=O)N5CCOCC5)cc4c3c1)-c1ccccc1N2C", "log10 of GI50": 0.97}
{"COMPOUND_SMILES": "CC(=O)OCCCc1ccc2c(c1)N(C)c1cc(CCCOC(C)=O)cc3c1c-2[n+](C)c1ccccc31.[I-]", "log10 of GI50": 0.52}
{"COMPOUND_SMILES": "CN1c2ccccc2-c2c3c1cc(/C=C/C(=O)N1CCOCC1)cc3c1cc(Cl)ccc1[n+]2C", "log10 of GI50": 1.08}
{"COMPOUND_SMILES": "CN1c2ccccc2-c2c3c1cccc3c1ccccc1[n+]2C.[I-]", "log10 of GI50": 0.11}

---

log10 IC50 listing for selected compounds.
Test: Inhibition of telomerase by TRAP assay
Set-up: species or system Homo sapiens
ATTRIBUTE_MEASURED: log10 IC50 (log10 of the value in nM)

{"COMPOUND_SMILES": "COc1cc2c3c([n+](C)c4ccccc4c3c1)-c1ccc(/C=C/C(=O)N3CCOCC3)cc1N2C.[I-]", "ATTRIBUTE_MEASURED": "log10 IC50", "NUMERIC_VALUE": 3.34}
{"COMPOUND_SMILES": "CN1c2ccccc2-c2c3c1cccc3c1ccccc1[n+]2C.[I-]", "ATTRIBUTE_MEASURED": "log10 IC50", "NUMERIC_VALUE": 2.58}
{"COMPOUND_SMILES": "COC(=O)/C=C/c1ccc2c(c1)c1cccc3c1c([n+]2C)-c1ccccc1N3C", "ATTRIBUTE_MEASURED": "log10 IC50", "NUMERIC_VALUE": 2.30}
{"COMPOUND_SMILES": "CC(=O)OCCCc1cc2c3c([n+](C)c4ccc(/C=C/C(=O)N5CCOCC5)cc4c3c1)-c1ccccc1N2C.[I-]", "ATTRIBUTE_MEASURED": "log10 IC50", "NUMERIC_VALUE": 2.58}
{"COMPOUND_SMILES": "COC(=O)CCc1ccc2c(c1)c1cccc3c1c([n+]2C)-c1ccccc1N3C", "ATTRIBUTE_MEASURED": "log10 IC50", "NUMERIC_VALUE": 3.48}
{"COMPOUND_SMILES": "CC(=O)Nc1ccc2c3cccc4c3c([n+](C)c2c1)-c1ccccc1N4C.[I-]", "ATTRIBUTE_MEASURED": "log10 IC50", "NUMERIC_VALUE": 2.58}
{"COMPOUND_SMILES": "COS(=O)(=O)[O-].Cc1cc2c3c([n+](C)c4ccc(F)cc4c3c1)-c1cc(F)ccc1N2C", "ATTRIBUTE_MEASURED": "log10 IC50", "NUMERIC_VALUE": 2.52}
{"COMPOUND_SMILES": "CC(=O)OCCCc1cc2c3c([n+](C)c4ccc(CCCOC(C)=O)cc4c3c1)-c1ccccc1N2C.[I-]", "ATTRIBUTE_MEASURED": "log10 IC50", "NUMERIC_VALUE": 3.51}

---

Assay: Aqueous solubility at 25 degC
Assay type: physicochemical
Settings: water
solubility listing for selected compounds.
ATTRIBUTE_MEASURED: solubility (µM)

{"COMPOUND_SMILES": "CN1c2ccccc2-c2c3c1cccc3c1cc(/C=C/C(=O)N3CCOCC3)ccc1[n+]2C.[I-]", "NUMERIC_VALUE": 1000}
{"COMPOUND_SMILES": "COS(=O)(=O)[O-].Cc1cc2c3c([n+](C)c4ccc(F)cc4c3c1)-c1cc(F)ccc1N2C", "NUMERIC_VALUE": 5000}

---

Assay: Inhibition of telomerase by TRAP assay
Set-up: species or system Homo sapiens
pIC50: −log10 of the molar value.
pIC50 listing for selected compounds.

{"COMPOUND_SMILES": "CN1c2ccccc2-c2c3c1cccc3c1cc(/C=C/C(=O)N3CCOCC3)ccc1[n+]2C.[I-]", "VALUE_RELATION_SIGN": "=", "pIC50": 6.43}
{"COMPOUND_SMILES": "CC(=O)OCCCc1ccc2c(c1)N(C)c1cc(CCCOC(C)=O)cc3c1c-2[n+](C)c1ccccc31.[I-]", "VALUE_RELATION_SIGN": "=", "pIC50": 5.64}
{"COMPOUND_SMILES": "COC(=O)/C=C/c1ccc2c(c1)N(C)c1cc(OC)cc3c1c-2[n+](C)c1ccccc31", "VALUE_RELATION_SIGN": "<", "pIC50": 6.00}
{"COMPOUND_SMILES": "COS(=O)(=O)[O-].Cc1ccc2c(c1)-c1c3c(cc(C)cc3c3cc(C)ccc3[n+]1C)N2C", "VALUE_RELATION_SIGN": "=", "pIC50": 6.60}

meta.source: ChEMBL document CHEMBL1139471
